Answer each item with its documented inhibition at 10 µg/mL.
target: human recombinant Cathepsin L protease (Homo sapiens, UniProt P07711); construct: purchased AnaSpec Inc. SensoLyte 520 Cathepsin L Protease Assay Kit, Lot#: AS72218-1010; experiment: FRET assay of Cathepsin L protease inhibition (SensoLyte 520 kit); type: biochemical; conditions: 0.01 mg/mL; n = 3; read-out: CatL PR Inhibition (%) ± SD at 0.01 (mg/mL)
Sequence (P07711 114-333): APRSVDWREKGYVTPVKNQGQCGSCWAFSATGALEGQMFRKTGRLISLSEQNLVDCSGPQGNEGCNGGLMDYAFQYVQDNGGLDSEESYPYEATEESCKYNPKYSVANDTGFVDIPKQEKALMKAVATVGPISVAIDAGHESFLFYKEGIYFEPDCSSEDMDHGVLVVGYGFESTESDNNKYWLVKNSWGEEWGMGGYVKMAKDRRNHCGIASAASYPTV
Please give a number only; it is taken to be in %.

In: inhibition at 10 µg/mL for C[C@@H]1CC[C@H]2[C@@H](C)C(=O)O[C@@H]3O[C@@]4(C)CC[C@@H]1[C@]32OO4 [Compound 14, Artemisinin] ?
Out: -1.1

In: What do you get for C[N+](C)(C)CC(=O)O [Compound 1, Betaine] ?
Out: -15.5

In: What do you get for O=C(C=Cc1ccc(O)c(O)c1)OC1CC(O)(C(=O)O)CC(O)C1OC(=O)C=Cc1ccc(O)c(O)c1 (stereo not shown) [Compound 11, 3,4-Dicaffeoylquinic acid] ?
Out: -31.3

In: What do you get for O=c1ccc2ccc(O)cc2o1 [Compound 6, 7-Hydroxycoumarine] ?
Out: 22.6
